Test system: P. mirabilis ATCC 29906
protocol.notes: Choline TMA-lyase activity (TMA generation) in cut gene cluster-harboring bacteria
Assay type: cell-based, Proteus mirabilis
condition.summary: 1 mM choline-d9, 3.5 hours, 37° C., read-out: EC50 against P. mirabilis ATCC 29906
pEC50: −log10 of the molar value.
Below: a set of entries, each annotated with reported pEC50.

compound	pEC50
CN1CC=C[C@H](O)C1 [drawing 204]	4.04
CN1CC=C[C@@H](O)C1 [drawing 205]	3.44
CN1CC=CC(O)C1 (stereo not drawn) [drawing 203]	4.01

Ref: patent US20220380309A1
